# measurementDescription: soluble on expression in E. coli; label from the status in PepcDB or PDB records
endpointName: soluble on expression in E. coli

>  <constructSequence>
DELLALASIYDGDEFRKAESVQGGETRIYLDLPQNFKIFVSGNSNECLQNSGFEYTICFLPPLVLNFELPPDYPSSSPPSFTLSGKWLSPTQLSALCKHLDNLWEEHRGSVVLFAWMQFLKEETLAYLRIRLLTKPERKLSWLLPPLSNN

>  <val>
not soluble

$$$$
>  <constructSequence>
MSLDSSKRQFLQQLGVLTAGASLVPLAEAKFPFSPERHEGSPRHRYAMLIDLRRCIGCQSCTVSCTIENQTPQGAFRTTVNQYQVQREGSQEVTNVLLPRLCNHCDNPPCVPVCPVQATFQREDGIVVVDNKRCVGCAYCVQACPYDARFINHETQTADKCTFCVHRLEAGLLPACVESCVGGARIIGDIKDPHSRIATMLHQHRDAIKVLKPENGTSPHVFYLGLDDAFVTPLMGRAQPALWQEGHHHHHH

>  <val>
not soluble

$$$$

---

# measurementDescription: soluble on expression in E. coli; label from the status in PepcDB or PDB records

>  <constructSequence>
GSSGSSGYQPTYNPTLPYKRPIPGGLSVGMSVYIQGMAKENMRRFHVNFAVGQDDGADVAFHFNPRFDGWDKVVFNTMQSGQWGKEEKKKSMPFQKGKHFELVFMVMPEHYKVVVNGNSFYEYGHRLPVQMVTHLQVDGDLELQSINFLGGQPAAAPY

>  <soluble on expression in E. coli>
soluble

$$$$
>  <constructSequence>
MPRVSASPRTPPPPVMDLRMSEDSAFPIDFSALTRAQLENITRVCHGSAGSVFQQAGLFTSAGLPIVNNVRLKLAQRDADAFTTFEELINLFEDFYGRLALIEDTQNNLLLSALSAGDEPGETLQ

>  <soluble on expression in E. coli>
not soluble

$$$$
>  <constructSequence>
MDFEKIRKWLEITNEYKQSDFWTNVLKYKAPEHFFDSEASTFVYDFYQDEEYNFIIVEMPGVYEEELTIRLLSKTQLLIKGTITPVFPAEMEVLRERYYGEIERIIQLPEAAETHLLQIQLLNGLLHISYPRQVETVAFNKGLLEHHHHHH

>  <soluble on expression in E. coli>
not soluble

$$$$
>  <constructSequence>
MKILVAVKQTAALEEDFEIREDGMDVDEDFMMYDLNEWDDFSLEEAMKIKESSDTDVEVVVVSVGPDRVDESLRKCLAKGADRAVRVWDDAAEGSDAIVVGRILTEVIKKEAPDMVFAGVQSSDQAYASTGISVASYLNWPHAAVVADLQYKPGDNKAVIRRELEGGMLQEVEINCPAVLTIQLGINKPRYASLRGIKQAATKPIEEVSLADIGLSANDVGAAQSMSRVRRMYIPEKGRATMIEGTISEQAAKIIQIINEFKGA

>  <soluble on expression in E. coli>
soluble

$$$$

---

# measurementDescription: soluble on expression in E. coli; label from the status in PepcDB or PDB records
endpointName: soluble on expression in E. coli

Recorded soluble on expression in E. coli, per entry:
>  <constructSequence>
MSLSSGEHEASRVLRERDYRWEGTEEEAYKAEGTHFSGARRQTLVGRPAGQEAPAFETRYFEVEPGGYTTLERHEHTHVVMVVRGHAEVVLDDRVEPLTPLDCVYIAPHAWHQIHATGANEPLGFLCIVDSDRDRPQRPDADDLARMCADPAVARRIRTEGHHHHHH

>  <endpointName>
soluble on expression in E. coli

>  <val>
soluble

$$$$
>  <constructSequence>
MKITLSKRIGLLAFLLPCALALSTTVHAETNKLVIESGDSAQSRQHAAMEKEQWNDTRNLRQKVNKRTEKEWDKADAAFDNRDKCEQSANINAYWEPNTLRCLDRRTGRVITPLEHHHHHH

>  <endpointName>
soluble on expression in E. coli

>  <val>
not soluble

$$$$
>  <constructSequence>
MSGAESYRHITVLLNEAVDALAVREDGVYVDGTFGRGGHSRLILSRLGDAGRLIVFDKDPQAIAVAEELARSDKRVGVVHGGFASFQTALDGLGIGKVDGALFDLGISSPQIDDGSRGFSFRFDAPLDMRMDTTRGMSAAEWIAVASEQDLHEVIKNYGEERFSRQIARAIVAQRAESPIDTTRKLAQIVAQNVRTRERGQDPATRTFQAIRIFINRELEEVGAVLPQVMCRLKEGGRLAVIAFHSLEDRIVKQFVKKYSQHAPLPRWAAVREADLPEPPLKIAGRALKPGEAEIAANPRARSAVLRVAERTAGPIPEQSQRKTSEWQLEHHHHHH

>  <endpointName>
soluble on expression in E. coli

>  <val>
not soluble

$$$$
>  <constructSequence>
MAHHHHHHMRTAVGSGAGASAAARAIPTAVPLTVADIDALARRDGVVSSDAVVSQQGTVASSRSVAELQAVVQSLQQENAELRERLERDRRQMLRSAMDVRDLHASQKQIRQRDLDRIEWLYCDNQRLRKILEMQGSAQELAGVLSPQPPAAAPATAHRPSLEGLRPLPEVPVELNAIEEEMPALEAEVVHLRGALVLKTQHLDDLWGHAERAEGYVQDLLQKLEHVQGIVREESDSCARRSKHLESTDQPLEDIVSFVSLRDHSSATQLTGPSSTTPFPFATVGRCEHIKRAAAVHGG

>  <endpointName>
soluble on expression in E. coli

>  <val>
not soluble

$$$$

State the recorded soluble on expression in E. coli for this entry: MAGGEDRGDGEPVSVVTVRVQYLEDTDPFASANFPEPRRAPTCSLDGALPLGAQIPAVHRLLGAPLKLEDSALQVSPSGYYLDTELSLEEQREMLEGFYEEISKGRKPTLILRTQLSVRVNAILEKLYSSSGPELRRSLFSLKQIFQEDKDLVPEFVHSEGLSCLIRVGAAADHNYQSYILRALGQLMLFVDGMLGVVAHSDTIQWLYTLCASLSRLVVKTALKLLLVFVEYSENNAPLFIRAVNSVASTTGAPPWANLVSILEEKNGADPELLVYTVTLINKTLAALPDQDSFYDVTDALEQQGMEALVQRHLGTAGTDVDLRTQLVLYENALKLEDG
soluble

State the recorded soluble on expression in E. coli for this entry: MGSDKIHHHHHHMKVLLYLEAEEYLKKSGIGRAIKHQEKALQIAGIDYTTNPTDDFDLVHMNTYGIRSWLLMSKAKKTGKKVIMHGHSTEEDFRNSFIGSNLVSPLFKWYLCRFYQKADAIITPTDYSKQLIKAYGIKKPIFVLSNGIDLSRYQRSEKKESAFRHYFHLSKDDKVVMGAGLYFMRKGIDQFVEVAAKMPDIRFIWFGETNKWVIPRKVRQIVTKQHPSNVTFAGYIKGDVYEGAMSASDAFFFPSREETEGIVVLEALASHQHVVLRDIPVYHGWVTEDSVELATDVDGFVEKLDKVLSGKSDKIKEGYHVAESRSIERIAHELASVYQKVMEL
not soluble

State the recorded soluble on expression in E. coli for this entry: SNATGLGELKISDTICAQNAVEALPALSVDEPTVTMTFQVNTSPFAGKEGKFVTSRNILERLEKELVHNVALRVEQTDDPDKFRVSGRGELHLSILIENMRREGFELAVSRPEVIIKEEDGQLMEPFETVTIDVMEEHQGGIMENIGLRKGELKDMAPDGKGRVRMDFIMPSRGLIGFQTEFMTLTSGSGLLYHTFDHYGPHKGGNIGQRVNGVLIANAAGKALTNALFNLQERGRLFIGHGVEVYEGMVIGIHSRDNDLTVNALKGKQLTNVRASGTDDAQVLTPPIVMTLEQALEFIDDDELVEVTPESIRIRKKFLTESDRKRASRSAK
soluble

State the recorded soluble on expression in E. coli for this entry: MGSDKIHHHHHHLKSAEGSTWNCCPIDWRAFQSNCYFPLTDNKTWAESERNCSGMGAHLMTISTEAEQNFIIQFLDRRLSYFLGLRDENAKGQWRWVDQTPFNPRRVFWHKNEPDNSQGENCVVLVYNQDKWAWNDVPCNFEASRICKIPGTTLN
not soluble

State the recorded soluble on expression in E. coli for this entry: MSLEKVLVIVGPTAVGKTALSIALAKKFNGEIISGDSMQVYRSLDIGTAKVTETEKEGIPHYLIDCREVSETYSAADFQKEGRQKIKEITEKGKLPIIVGGTGLYIQSLLYDFQLGSREIDDSPEIRETYNLFAEEKGNQALWLLLQQKDPLAANSIHFNNRKKVIRALEVFDKTGYSILTPKEKPARLYDYYLLGLETDRALLYERINQRVDQMMTEGLLEEAKQMFQQPHAQAAQGIGYKEFFPYFSGEQSLEMAVETVKQQSRRYAKRQLTWFRNRMAAHWWNLVQQPTDLPKLEKEVAEWLQQKESEEGHHHHHH
soluble

State the recorded soluble on expression in E. coli for this entry: MNRRDFLQFGLRGIVVAGLGKGFYNTTSEQVEIVRTSVKIRNLPAALQGLKIGLLTDLHASFVVSSETIRSAGRLLMAEKPDLIVMTGDYISGSTRFLSGSVGQFKKEYLSKCIDALSGLKAPLGIYGVLGNHDFWSGPESVKAICEAFTRQMGMVWLRNSSVEIRRGRGSLHLLGVDDYWEPSCSLAAACKGVDTDGIKILLSHNPDINDEIFLLRERIDLVLSGHTHGGQVVVPFLGQPVMPSKFGQKYRAGLVRDGDRQTYISRGVGCLLAPIRLNCPPEATVLTLTLEHHHHHH
soluble

State the recorded soluble on expression in E. coli for this entry: MVTIVWKESKGTAKSRYKARRAELIAERRSNEALARKIALKLSGCVRADKAASLGSLRCKKADECSGSICLPNVAIYAAGYRKSKQLTAR
not soluble

State the recorded soluble on expression in E. coli for this entry: MAVDAVNSAAANPWANAGASSSDKNAASLNYDSFLKLLIAQMKNQDPTSPMDAGQQMSQLASFSQVEQTIKTNTHLKSMLQAEALTRASDLVGKTVMSADDKVTGVVKEVQVFSDGIVAVTEAGDKVLLQAGVVFSNGPITTKSDETTADSNNSAGS
not soluble

These data points were gathered from the DeepSol protein solubility set.
